Details: in acetonitrile, 313.15 K
METRIC: solubility (mole fraction)
Just the number.

Answer with the recorded solubility (mole fraction) of `Nc1ccccc1N` only.
0.128

---

Settings: in acetonitrile, 285.65 K
METRIC: solubility (mole fraction)
Just the number.

Answer with the recorded solubility (mole fraction) of `Nc1ccccc1N` only.
0.0595

---

Conditions: in methanol, 283.15 K
METRIC: solubility (mole fraction)

Answer with the recorded solubility (mole fraction) of `Nc1ccccc1N` only.
0.0516

---

Settings: in water, 305.65 K
METRIC: solubility (mole fraction)
Just the number.

Answer with the recorded solubility (mole fraction) of `Nc1ccccc1N` only.
0.00717

---

Settings: in water, 298.15 K
METRIC: solubility (mole fraction)
Just the number.

Answer with the recorded solubility (mole fraction) of `Nc1ccccc1N` only.
0.00608

---

Settings: in ethanol, 300.65 K
METRIC: solubility (mole fraction)
Just the number.

Answer with the recorded solubility (mole fraction) of `Nc1ccccc1N` only.
0.0177

---

Conditions: in methanol, 303.15 K
METRIC: solubility (mole fraction)

Answer with the recorded solubility (mole fraction) of `Nc1ccccc1N` only.
0.0685

---

Settings: in acetonitrile, 310.65 K
METRIC: solubility (mole fraction)
Just the number.

Answer with the recorded solubility (mole fraction) of `Nc1ccccc1N` only.
0.12

---

Details: in acetonitrile, 298.15 K
METRIC: solubility (mole fraction)
Just the number.

Answer with the recorded solubility (mole fraction) of `Nc1ccccc1N` only.
0.0858

---

Settings: in ethanol, 288.15 K
METRIC: solubility (mole fraction)
Just the number.

Answer with the recorded solubility (mole fraction) of `Nc1ccccc1N` only.
0.0148

---

Conditions: in ethanol, 308.15 K
METRIC: solubility (mole fraction)
Just the number.

Answer with the recorded solubility (mole fraction) of `Nc1ccccc1N` only.
0.0199

---

Conditions: in water, 313.15 K
METRIC: solubility (mole fraction)
Just the number.

Answer with the recorded solubility (mole fraction) of `Nc1ccccc1N` only.
0.00855

---

Conditions: in water, 283.15 K
METRIC: solubility (mole fraction)
Just the number.

Answer with the recorded solubility (mole fraction) of `Nc1ccccc1N` only.
0.00447
